- system under test: T1, hCD137 (FXa digested) (human, UniProt Q07011 24-186)
- T1 construct: Factor Xa digestion and Protein A removed the Fc; also called human CD137 extracellular domain
- T1 sequence (Q07011 other isoform, or with tags, fused parts or gaps limits assumed): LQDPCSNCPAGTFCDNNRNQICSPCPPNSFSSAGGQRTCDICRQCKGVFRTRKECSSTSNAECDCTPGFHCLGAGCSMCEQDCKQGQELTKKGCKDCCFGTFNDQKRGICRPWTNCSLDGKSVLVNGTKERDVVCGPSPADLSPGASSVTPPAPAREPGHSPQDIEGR
- assay overview: SPR, 100 uM ADP
- Description: Biacore T200 (GE Healthcare) was used to analyze the interaction of antigen-antibody reaction between the anti-CD137 antibodies and hCD137 (FXa digest). […] For the running buffer, 20 mM ACES, 150 mM NaCl, 2 mM MgCl₂, 0.05% Tween20 (pH 7.4) was used, and 10 mM Glycine-HCl (pH 1.5) was used as the regeneration solution. After capturing of the anti-CD137 antibodies suspended in TBS, 500 nM hCD137 (FXa digest) was injected into each flow cell at a flow rate of 10 μL/min for three minutes. […]
property: binding amount (RU)
Give the number; RU is assumed, so skip it.

binding amount for dBBAT122-P253 (antibody, human IgG1, lambda, V domains shown) VH: EVQLVESGGDLVKPGGGLRLSCAASGFTFSTYTMNWVRQAPGKGLEWVSSISSRSNYKFYADSVKGRFTISRDNAKNSLYLQMNSLRAEDTAVYYCARFGGKNNMNWVFDYWGQGTLVTVSS VL: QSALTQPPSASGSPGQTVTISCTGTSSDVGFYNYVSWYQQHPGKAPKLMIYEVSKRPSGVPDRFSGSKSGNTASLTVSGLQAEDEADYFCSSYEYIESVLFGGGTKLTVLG ?
55.5

Sourced from patent US20230272099A1
